MEASUREMENT TARGET: EPHB2 (UniProt P29323)
Sequence (P29323 whole entry, looked up): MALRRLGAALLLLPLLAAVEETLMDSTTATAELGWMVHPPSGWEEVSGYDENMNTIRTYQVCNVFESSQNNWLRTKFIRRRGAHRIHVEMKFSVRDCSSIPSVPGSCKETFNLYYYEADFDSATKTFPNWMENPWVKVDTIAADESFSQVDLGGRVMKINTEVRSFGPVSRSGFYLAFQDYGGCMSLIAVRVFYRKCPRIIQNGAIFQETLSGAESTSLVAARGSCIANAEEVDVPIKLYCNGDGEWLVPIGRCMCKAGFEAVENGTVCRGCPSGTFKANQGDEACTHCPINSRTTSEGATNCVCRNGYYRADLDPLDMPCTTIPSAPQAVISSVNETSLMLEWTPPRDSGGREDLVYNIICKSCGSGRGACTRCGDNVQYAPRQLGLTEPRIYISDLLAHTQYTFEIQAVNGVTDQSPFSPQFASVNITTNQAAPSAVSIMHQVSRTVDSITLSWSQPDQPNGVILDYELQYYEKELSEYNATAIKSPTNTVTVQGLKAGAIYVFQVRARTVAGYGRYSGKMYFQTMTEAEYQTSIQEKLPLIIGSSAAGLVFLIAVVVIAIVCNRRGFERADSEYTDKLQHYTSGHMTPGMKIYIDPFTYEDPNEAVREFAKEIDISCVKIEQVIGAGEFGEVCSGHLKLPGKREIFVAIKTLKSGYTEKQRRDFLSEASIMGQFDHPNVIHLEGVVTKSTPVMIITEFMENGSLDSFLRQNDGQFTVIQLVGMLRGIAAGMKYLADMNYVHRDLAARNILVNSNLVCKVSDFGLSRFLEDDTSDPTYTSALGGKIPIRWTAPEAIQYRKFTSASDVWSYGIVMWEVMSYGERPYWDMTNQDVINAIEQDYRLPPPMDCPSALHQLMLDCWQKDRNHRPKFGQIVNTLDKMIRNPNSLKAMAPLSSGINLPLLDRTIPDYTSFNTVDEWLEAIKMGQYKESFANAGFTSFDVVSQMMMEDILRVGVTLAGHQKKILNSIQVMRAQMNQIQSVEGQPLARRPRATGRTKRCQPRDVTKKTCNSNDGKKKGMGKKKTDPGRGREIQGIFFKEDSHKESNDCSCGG
EXPERIMENT DESCRIPTION: phosphorylation enrichment, bacterial display (enrichment ratio); higher = better substrate or ligand; peptides without Tyr show the background;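 also: 11-residue human phosphosite peptides and single-mutation variants displayed on the E. coli surface, counted by deep sequencing, each peptide's frequency after selection divided by its frequency in the unselected input library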;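 also: frequency after pTyr selection over input frequency; kinase dosed for 20-30% of maximal phosphorylation in three min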
Short version: phosphorylation enrichment at least 0.6 is 1 (yes), less is 0 (no).

Determine whether this sequence has phosphorylation enrichment no lower than 0.6: RTTKTYFPHFD [HBA1_Y43_P38R]
0 (no)

Determine whether this sequence has phosphorylation enrichment no lower than 0.6: TLERHYEELQA [SPTBN2_Y834]
0 (no)

Determine whether this sequence has phosphorylation enrichment no lower than 0.6: FGSVDCWEKFF [EEF1AKNMT_Y16_Y16C]
1 (yes)

Determine whether this sequence has phosphorylation enrichment no lower than 0.6: KNRDVSSSDYF [USP24_Y2134_Y2134S]
0 (no)

Determine whether this sequence has phosphorylation enrichment no lower than 0.6: EEGNPYYSSTR [MCCC2_Y520_A524T]
0 (no)

Determine whether this sequence has phosphorylation enrichment no lower than 0.6: QRVLLYVRRET [GRHL3_Y518]
0 (no)

Determine whether this sequence has phosphorylation enrichment no lower than 0.6: RVLHNYLVWRV [ECEL1_Y400]
1 (yes)

Determine whether this sequence has phosphorylation enrichment no lower than 0.6: KGIQLYDTPYE [SHB_Y297]
1 (yes)

Determine whether this sequence has phosphorylation enrichment no lower than 0.6: LRRREYQRQDY [PRKRIP1_Y90]
1 (yes)

Determine whether this sequence has phosphorylation enrichment no lower than 0.6: CTTIHYNYVCN [TP53_Y234_M237V]
1 (yes)

Determine whether this sequence has phosphorylation enrichment no lower than 0.6: FDSPFYQDSLP [TSC1_Y508_R509Q]
0 (no)

Determine whether this sequence has phosphorylation enrichment no lower than 0.6: MGSYNYLGFPR [SPTLC2_Y178_A182P]
1 (yes)

Determine whether this sequence has phosphorylation enrichment no lower than 0.6: LNPFIYSLRNR [OR1A1_Y288]
1 (yes)

Determine whether this sequence has phosphorylation enrichment no lower than 0.6: FYNSEYGELSE [FLT4_Y1337]
1 (yes)

Determine whether this sequence has phosphorylation enrichment no lower than 0.6: ETCLAYREKRI [TEKT1_Y118]
0 (no)

Determine whether this sequence has phosphorylation enrichment no lower than 0.6: PRIKTYMRPSP [TDP1_Y497_H493R]
0 (no)

Determine whether this sequence has phosphorylation enrichment no lower than 0.6: LKEIHYPPFTD [ALDH3B2_Y362_YF]
0 (no)

Determine whether this sequence has phosphorylation enrichment no lower than 0.6: RRYVYYYSYLL [PTEN_Y177]
1 (yes)

Determine whether this sequence has phosphorylation enrichment no lower than 0.6: CTTIHYHYMCN [TP53_Y234_N235H]
0 (no)

Determine whether this sequence has phosphorylation enrichment no lower than 0.6: FSPPYYHRNCM [HGD_Y334_R330S]
1 (yes)

Determine whether this sequence has phosphorylation enrichment no lower than 0.6: RHPREYQDLLN [DES_Y388_L385P]
0 (no)

Determine whether this sequence has phosphorylation enrichment no lower than 0.6: RRNEEYCLLDS [ITK_Y198]
1 (yes)

Determine whether this sequence has phosphorylation enrichment no lower than 0.6: FTNRNYDLDYD [MYC_Y12]
1 (yes)

Determine whether this sequence has phosphorylation enrichment no lower than 0.6: WQQQSYLDYGI [CTNNB1_Y30_S33Y]
1 (yes)

Determine whether this sequence has phosphorylation enrichment no lower than 0.6: RLRAAYNLVKR [PFKM_Y103]
1 (yes)

Determine whether this sequence has phosphorylation enrichment no lower than 0.6: EFKKHYGYSLY [ANXA3_Y295]
0 (no)

Determine whether this sequence has phosphorylation enrichment no lower than 0.6: TTKAKYKTPTF [PLD2_Y573_YF]
0 (no)

Determine whether this sequence has phosphorylation enrichment no lower than 0.6: EEKKKYYDAKI [CASP5_Y103_T106A]
0 (no)

Determine whether this sequence has phosphorylation enrichment no lower than 0.6: ICGVSYDEYRY [CFTR_Y512_F508C]
1 (yes)

Determine whether this sequence has phosphorylation enrichment no lower than 0.6: CTTIHYNYMFN [TP53_Y234_C238F]
1 (yes)

Determine whether this sequence has phosphorylation enrichment no lower than 0.6: FVSIVCNDSGE [TSC2_Y1650_Y1650C]
1 (yes)

Determine whether this sequence has phosphorylation enrichment no lower than 0.6: GRTNICKNKKD [SLC26A3_Y520_Y520C]
0 (no)

Determine whether this sequence has phosphorylation enrichment no lower than 0.6: RESYKYFPSSL [CXXC1_Y218]
0 (no)

Determine whether this sequence has phosphorylation enrichment no lower than 0.6: DRPSEYAARQL [ANXA13_Y90]
0 (no)

Determine whether this sequence has phosphorylation enrichment no lower than 0.6: IDFARYWHGND [MMP11_Y162_D166N]
0 (no)

Determine whether this sequence has phosphorylation enrichment no lower than 0.6: SSSNPYSTVTM [ACTN2_Y599]
0 (no)

Determine whether this sequence has phosphorylation enrichment no lower than 0.6: QSPQLYKQMCI [DARS1_Y253]
0 (no)

Determine whether this sequence has phosphorylation enrichment no lower than 0.6: TLQSMYGCDLG [HLA-B_Y123_V127L]
0 (no)

Determine whether this sequence has phosphorylation enrichment no lower than 0.6: HSVLNYGVCVC [JAK2_Y613_L609S]
1 (yes)

Determine whether this sequence has phosphorylation enrichment no lower than 0.6: YAGRDYSLDEF [MYOF_Y1705_G1701A]
0 (no)

Determine whether this sequence has phosphorylation enrichment no lower than 0.6: RHPLEYLRQYP [NARS2_Y138]
0 (no)

Determine whether this sequence has phosphorylation enrichment no lower than 0.6: VDLIVYLWTNP [TK2_Y181_R183W]
0 (no)

Determine whether this sequence has phosphorylation enrichment no lower than 0.6: SQQTFYPVSNM [ABCD1_Y181_R182P_YF]
0 (no)

Determine whether this sequence has phosphorylation enrichment no lower than 0.6: GFILMYDITNK [RAB3C_Y110_E115K]
1 (yes)

Determine whether this sequence has phosphorylation enrichment no lower than 0.6: VGTKRYMASEV [ACVRL1_Y375_P378S]
0 (no)

Determine whether this sequence has phosphorylation enrichment no lower than 0.6: APRKVYDTRDD [ZFPL1_Y215]
0 (no)

Determine whether this sequence has phosphorylation enrichment no lower than 0.6: FSTDCYRVGGH [NTRK2_Y707_Y706C_YF]
0 (no)

Determine whether this sequence has phosphorylation enrichment no lower than 0.6: RVDRDYVLKSA [HTATIP2_Y111]
0 (no)

Determine whether this sequence has phosphorylation enrichment no lower than 0.6: RAILLYEYVGK [NATD1_Y45_V42I]
1 (yes)

Determine whether this sequence has phosphorylation enrichment no lower than 0.6: AKFPSYEKNKK [FOXL2_Y91_F90S]
0 (no)

Determine whether this sequence has phosphorylation enrichment no lower than 0.6: QLCVNYPGGYT [PROS1_Y259]
1 (yes)

Determine whether this sequence has phosphorylation enrichment no lower than 0.6: LRYDSYSSYCN [SLC20A2_Y433]
1 (yes)

Determine whether this sequence has phosphorylation enrichment no lower than 0.6: DAAEDYAEGVC [DHODH_Y194_R199C]
1 (yes)

Determine whether this sequence has phosphorylation enrichment no lower than 0.6: PFQGAYLKINK [MYO1B_Y967_E969K]
0 (no)

Determine whether this sequence has phosphorylation enrichment no lower than 0.6: PGLRGYPGLSG [COL4A2_Y306]
0 (no)

----------
MEASUREMENT TARGET: EPHB1 (UniProt P54762)
Sequence (P54762 whole entry, looked up): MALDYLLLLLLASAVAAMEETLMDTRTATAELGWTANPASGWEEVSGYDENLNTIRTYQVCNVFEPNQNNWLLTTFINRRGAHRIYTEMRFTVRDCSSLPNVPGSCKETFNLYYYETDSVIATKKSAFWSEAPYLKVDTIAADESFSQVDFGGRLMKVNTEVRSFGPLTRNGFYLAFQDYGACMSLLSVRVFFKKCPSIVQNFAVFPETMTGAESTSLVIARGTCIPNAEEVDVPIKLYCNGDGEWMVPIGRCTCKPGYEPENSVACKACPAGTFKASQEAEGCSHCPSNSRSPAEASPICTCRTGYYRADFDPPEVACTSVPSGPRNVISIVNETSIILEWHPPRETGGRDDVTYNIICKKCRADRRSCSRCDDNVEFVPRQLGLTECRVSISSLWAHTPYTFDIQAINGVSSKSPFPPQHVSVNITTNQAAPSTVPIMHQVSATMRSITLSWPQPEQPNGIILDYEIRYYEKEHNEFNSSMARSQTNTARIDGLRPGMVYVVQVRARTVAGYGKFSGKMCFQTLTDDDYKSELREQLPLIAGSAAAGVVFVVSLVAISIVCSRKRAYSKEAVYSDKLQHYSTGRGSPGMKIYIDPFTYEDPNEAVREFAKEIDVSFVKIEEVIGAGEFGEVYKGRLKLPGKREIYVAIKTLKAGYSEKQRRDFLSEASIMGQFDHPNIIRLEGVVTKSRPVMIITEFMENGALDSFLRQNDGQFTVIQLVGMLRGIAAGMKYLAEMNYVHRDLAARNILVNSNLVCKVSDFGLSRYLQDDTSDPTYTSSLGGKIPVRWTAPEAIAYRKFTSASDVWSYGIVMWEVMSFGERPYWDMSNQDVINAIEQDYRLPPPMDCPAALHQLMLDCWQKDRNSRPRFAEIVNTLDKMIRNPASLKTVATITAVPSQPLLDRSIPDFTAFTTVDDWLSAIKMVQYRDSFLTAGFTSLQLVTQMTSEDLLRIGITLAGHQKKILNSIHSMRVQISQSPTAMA
EXPERIMENT DESCRIPTION: phosphorylation enrichment, bacterial display (enrichment ratio); higher = better substrate or ligand; peptides without Tyr show the background
REPORTED ENDPOINT: phosphorylation enrichment
The reply should be a number, written without any unit.

Value lookup for phosphorylation enrichment; key = TDIVAYSGRVQ [SPTBN2_Y477]
0.369

Value lookup for phosphorylation enrichment; key = LGPSDYFGEIA [PRKAR1A_Y323]
0.696

Value lookup for phosphorylation enrichment; key = TFGVAYRAKDK [CDK11B_Y453_V452A_YF]
0.472

Value lookup for phosphorylation enrichment; key = EMTAEYTCTRK [ACAD9_Y325_A326T]
0.674

Value lookup for phosphorylation enrichment; key = MSSLFYANALF [HOXB7_Y6_T9A_YF]
0.764

Value lookup for phosphorylation enrichment; key = PSARTYCFKQE [KLHDC9_Y175_YF]
0.386

Value lookup for phosphorylation enrichment; key = PFTRNYFVQAV [CYBA_Y87_R90Q_YF]
0.601

Value lookup for phosphorylation enrichment; key = KEAQVYQAFRL [SUCLG2_Y343_K347R]
1.23

Value lookup for phosphorylation enrichment; key = FFTEEYVRAHP [DOCK2_Y1555_D1558A]
0.66

Value lookup for phosphorylation enrichment; key = EYGRRYGFSCQ [CCDC93_Y209_R213C]
0.59

Value lookup for phosphorylation enrichment; key = SFSGEYGSGGG [ZG16_Y30_G32S_YF]
0.34

Value lookup for phosphorylation enrichment; key = ALIKAYDKAVA [SMN1_Y43]
0.546

Value lookup for phosphorylation enrichment; key = IHETTHNSIMK [ACTA1_Y281_Y281H]
0.304

Value lookup for phosphorylation enrichment; key = MILSAYALGGL [CPS1_Y590_R587L]
0.655

Value lookup for phosphorylation enrichment; key = LFHENYNAGTF [CFI_Y421_I416L_YF]
0.848

Value lookup for phosphorylation enrichment; key = DPAFGYEDFTR [SESN2_Y323_T320A]
0.455

Value lookup for phosphorylation enrichment; key = ALHRPYGCDVE [ABL2_Y80]
0.59

Value lookup for phosphorylation enrichment; key = SRGHQYQELPR [KCNH2_Y1009_R1007H]
0.466

Value lookup for phosphorylation enrichment; key = SSPRRYTIAAL [TTR_Y125_G121S]
0.303

Value lookup for phosphorylation enrichment; key = CPPELYALMSD [ZAP70_Y569]
3.39

Value lookup for phosphorylation enrichment; key = LGGAMYFLEAD [PKHD1_Y452_E457D_YF]
0.535

Value lookup for phosphorylation enrichment; key = RLRAAYNLVKR [PFKM_Y103]
0.571

Value lookup for phosphorylation enrichment; key = PKKKQYTSIHH [APP_Y728_L723P]
0.441

Value lookup for phosphorylation enrichment; key = LAIELYVVVCK [RHO_Y136_R135L]
2.12

Value lookup for phosphorylation enrichment; key = SSSNPYSTVTM [ACTN2_Y599]
0.461

Value lookup for phosphorylation enrichment; key = RHPLDYLRQYP [NARS2_Y138_E137D]
0.799

Value lookup for phosphorylation enrichment; key = RQQEDYLLFKQ [RARRES1_Y159_YF]
1.11

Value lookup for phosphorylation enrichment; key = SVVVPNEPPEV [TP53_Y220_Y220N]
0.645

Value lookup for phosphorylation enrichment; key = TGVRDYIHVVD [GALE_Y241]
0.499

Value lookup for phosphorylation enrichment; key = IALNSYHSRNC [IFNGR1_Y397]
0.383

Value lookup for phosphorylation enrichment; key = ALARKYHGGGG [HBB_Y146_H144R]
0.418

Value lookup for phosphorylation enrichment; key = EFKDAYTFAAD [BRDT_Y335_K336T_YF]
0.452

Value lookup for phosphorylation enrichment; key = LNPDGYKKAFE [CPXM2_Y427_E428K_YF]
0.727

Value lookup for phosphorylation enrichment; key = PTDCVYVMPTV [MYO7A_Y1668_S1666C]
3.34

Value lookup for phosphorylation enrichment; key = PGAGHYEDTIL [ALK_Y1604]
0.871

Value lookup for phosphorylation enrichment; key = STEEQYRICQV [EFHC1_Y115_R118C]
0.71

Value lookup for phosphorylation enrichment; key = RHSGSYFVTSV [APC_Y2838_L2839F]
0.517

Value lookup for phosphorylation enrichment; key = FTHSDYQFSQR [PKP2_Y166_YF]
0.435

Value lookup for phosphorylation enrichment; key = HMEAVYIDIAD [PITPNA_Y140_V136M]
9.76

Value lookup for phosphorylation enrichment; key = YALAEYTEVKT [ALDH1A3_Y497]
0.651

Value lookup for phosphorylation enrichment; key = PGIRMYRVQYN [LRFN1_Y454_Q455R]
0.744

Value lookup for phosphorylation enrichment; key = PEVSGYCHCAD [TG_Y234]
3.57

Value lookup for phosphorylation enrichment; key = NRVEIYEKTVE [CYFIP1_Y108]
0.713

Value lookup for phosphorylation enrichment; key = LLVVLNKFRCF [PSEN1_Y154_Y154N_YF]
0.951

Value lookup for phosphorylation enrichment; key = QEGPEYWDRNT [HLA-B_Y83]
0.9

Value lookup for phosphorylation enrichment; key = GLRYGYGVLGG [KRTAP20-2_Y15]
0.407

Value lookup for phosphorylation enrichment; key = MFDKEYFSVHN [MET_Y1234_YF]
0.605

Value lookup for phosphorylation enrichment; key = TSNQEYLYLSM [FGFR1_Y766_D768Y]
2.28

Value lookup for phosphorylation enrichment; key = DPLLTYRFPPN [LMNA_Y481_K486N]
0.446

Value lookup for phosphorylation enrichment; key = GSIQQYTFKQE [PRG4_Y1271_I1272T_YF]
0.484

Value lookup for phosphorylation enrichment; key = KGIQLYDTPYE [SHB_Y297]
11.3

Value lookup for phosphorylation enrichment; key = LARNMYDKEYY [MET_Y1230_D1228N]
0.482

Value lookup for phosphorylation enrichment; key = TMKSRYMELYD [BBS2_Y644]
0.535

Value lookup for phosphorylation enrichment; key = IHRWVYPLTPE [EIF2B5_Y319_R315H]
0.525

Value lookup for phosphorylation enrichment; key = ICGVSYDEYRY [CFTR_Y512_F508C]
0.733

Value lookup for phosphorylation enrichment; key = GFILMYDITNK [RAB3C_Y110_E115K]
1.15

Value lookup for phosphorylation enrichment; key = TYGQVYKGPHV [TNIK_Y40_R43P]
0.586
